# test.details: soluble on expression in E. coli; label from the status in PepcDB or PDB records
recorded.endpoint: soluble on expression in E. coli

Worked examples, 5 sequences total:
| biosequence | recorded.endpoint | result |
| --- | --- | --- |
| MGSDKIHHHHHHVRIAILSQGPQLYSTKRLVEAALARGHEVKVINPLKCYMNINMTKPSIHMAGKDLGHFDAVIPRIGASVTFYGSAVLRQFEMMGVYAVNGSIGIARSRDKLRSMQLLSRQGIGLPITGFANKPSDIPDLIDMVGGAPLVVKLLEGTQGIGVVLAETRKAAESVLEAFMGLKANIMVQEYIAEAQGADIRCFVLGDKVIAAMKRQAKPGEFRSNLHRGGSATLVKLTPEERSVALRAAKTMGLNIAGVDLLRSNHGPVVMEVNSSPGLEGIEKATQKDVADAIICFMEKNANKSIKSAQ | soluble on expression in E. coli | not soluble |
| MYGVLVIGAPGAGKSTFCAGLTDIFSQTKRPFLTINLDPANDTMAYAPDVNITEMITVNDVMDRLGLGPNGALKYCIETLGANCNWLLQKIEANHKKYLIIDCPGQLELYKSEGELWKVIRFLEKSGVRLCALHLADSLYCSDPSKFISVALSTLATMVTMEMPQVNCLSKADLFSEDGTYDLEFFSHLPDVNRLLDLLNEVPGLEKYRKLNEAICGVISDFDLVSFVPLAVENKESMMKVIQMVDAANGFSLTEQGDIRELILNSKA | soluble on expression in E. coli | not soluble |
| YHPVFSAKIEQRLIERFGVKRALVALDQPNEEAQRLQVSGLVSNYLTSTLKNGMVVTVGQGRNVSSVAHHIGVITPRDCKFVCGIGGIHPRGGMYNADHICRQLAKKYGGTSETLYAPAYAENREQKMAFMQNATVKQTLDLARKADVALVGIGDMSENSYMVDLGWFTPDEVVQSRLKQGVVGDFAGYDFFDIHGNVANTVMSDRVIGLGIEEFRPIAEVIAIAAENSKPLALLGALRTGAIDVIATSVSNALTVLNLDEQMHGNAASES | soluble on expression in E. coli | not soluble |
| LTDIRKKAATTLEKQIKQELNQLYMEKAIFSVHFESDKTELTESGQDSVVFYMSTNPGEPLKPLAKIASGGELSRMMLALKTIFSRHQGITSIIFDEVDTGVSGRVGQAIAEKIYAVSVGSQVLCISHLPQVAAMANHHYYITKKVQNKRTTTSVTILKGEQKVEEISRMIAGIEVTELTKQHAKEMIQQAEKVKQTY | soluble on expression in E. coli | not soluble |
| MAEQSDKDVKYYTLEEIQKHKDSKSTWVILHHKVYDLTKFLEEHPGGEEVLREQAGGDATENFEDVGHSTDARELSKTYIIGELHPDDRSKIAKPSETL | soluble on expression in E. coli | soluble |

Q: Give the measured soluble on expression in E. coli for MPVLHNRISNDALKAKMLAESEPRTTISFYKYFHIADPKATRDALYQLFTALNVFGRVYLAHEGINAQISVPASNVETFRAQLYAFDPALEGLRLNIALDDDGKSFWVLRMKVRDRIVADGIDDPHFDASNVGEYLQAAEVNAMLDDPDALFIDMRNHYEYEVGHFENALEIPADTFREQLPKAVEMMQAHKDKKIVMYCTGGIRCEKASAWMKHNGFNKVWHIEGGIIEYARKAREQGLPVRFIGKNFVFDERMGERISDEIIAHCHQCGAPCDSHTNCKNDGCHLLFIQCPVCAEKYKGCCSEICCEESALPPEEQRRRRAGRENGNKIFNKSRGRLNTTLCIPDPTELEHHHHHH
Result: soluble

Q: Give the measured soluble on expression in E. coli for AATSRDALPNTEASGPTHSKEIPALTAVETGATNPLVPSDTVQTRHVVQHRSRSESSIESFFARGACVTIMTVDNPASTTNKDKLFAVWKITYKDTVQLRRKLEFFTYSRFDMELTFVVTANFTETNNGHALNQVYQIMYVPPGAPVPEKWDDYTWQTSSNPSIFYTYGTAPARISVPYVGISNAYSHFYDGFSKVPLKDQSAALGDSLYGAASLNDFGILAVRVVNDHNPTKVTSKIRVYLKPKHIRVWCPRPPRAVAYYGPGVDYKDGTLTPLSTKDLTTY
Result: soluble

* * *

# test.details: soluble on expression in E. coli; label from the status in PepcDB or PDB records
recorded.endpoint: soluble on expression in E. coli

Worked examples, 8 sequences total:
| biosequence | recorded.endpoint | result |
| --- | --- | --- |
| MSEEKPLKVSYSKQFVRDLTDLAKRSPNVLIGSKYITAIHCLLNRLPLPENYQDHALVGEWKGYRDCHIQGDLVLIYQYVIQDEFDELKFSRLNIHSQTALK | soluble on expression in E. coli | not soluble |
| MILKRAYDVTPQKISTDKVRGVRKRVLIGLKDAPNFVMRLFTVEPGGLIDRHSHPWEHEIFVLKGKLTVLKEQGEETVEEGFYIFVEPNEIHGFRNDTDSEVEFLCLIPKEGGE | soluble on expression in E. coli | not soluble |
| MSLAFDETRLPDDVERGAQGGPRFKTTVITLSSGFERRNSDWAQTRGEWDVGYGMQDATDLEDVIAFFYARNGRARGFRFKDWTDYVLSRQAIGTTDGSNATFQLFKRYTSGSTSFDRILSKIVTATTQVWVNNVEAPEGGASTSFAIDTTTGMITLGSSLAAQSGTTVEAACQFDVPVRFGSDALDITAEWADAVGAPNIPIVEIRVEGHHHHHH | soluble on expression in E. coli | soluble |
| MAHHHHHHMRLLTHNFLACLKCDTYPLLVTAAEMEEIPVEYDAEFTRRMLARVDYASLRTTFHALREAHESVRGPSHDEGADTAEGALASSELPETMEGADFSDHSAFLRTAHYAMNVVAVRNGTLECPACKTTFSINDFIPNFVPEAK | soluble on expression in E. coli | soluble |
| MMRRGGQHLSPDPIGLGGGIQPQSYVHNPLEWVDPLGLTESGCKQPNSPENSQKPEVKKPNISTKIHDGAQGKHIEGHNNYVEGKSVIDAKPQELLDNYHAGNVNTSRVINENKIKVDFGDVNGTHKDMNGTNTSTSWGLIHSRKNGAHIVPALPDTILEHHHHHH | soluble on expression in E. coli | not soluble |
| MSKLAEFREAERKLQEQLALLEKLKSDSSLKQELEFKDKLQALMDKYGMTLHNIIAILDPKAPVTVSAAPQRRARALKVYKNPNNGEVVETKGGNHKVLKAWKEQYGSETVESWLQR | soluble on expression in E. coli | not soluble |
| MAGWRTVVVNTHSKLSYKNNHLIFKDAYKTELIHLSEIDILLLETTDIVLSTMLVKRLVDENVLVIFCDDKRLPTAMLMPFYGRHDSSLQLGKQMSWSETVKSQVWTTIIAQKILNQSCYLGACSYFEKSQSIMDLYHGLENFDPSNREGHAARIYFNTLFGNDFSRDLEHPINAGLDYGYTLLLSMFAREVVVSGCMTQFGLKHANQFNQFNFASDIMEPFRPLVDKIVYENRNQPFPKIKRELFTLFSDTFSYNGKEMYLTNIISDYTKKVVKALNNEGKGVPEFRI | soluble on expression in E. coli | not soluble |
| MAEQRWTGQLDLTVFNNGQSSKARNIFFEKALKVLRPIYLEQSPVPTFYIVNVGGGYLDGDRYRVNVNLEDNAQVTLTSQGATKIYKTPNDHVEQYQTFNLSNQSYMEFVADPIIAYENAKFFQHNTFNLKEDSAMFYTDILTPGYSSNGQDFTYNYMHLINEIYIDNQLVVFDNMMLSPDKSRLDGIGYMENYTHLGSAYFIHPDVNQSFIDDIYAAVADFQKQYDCRIGISQLPTHGLAVRILTKRTQIIEEILTRVQSYINQTIYHRQINFLRKYLEHHHHHH | soluble on expression in E. coli | not soluble |

Q: Give the measured soluble on expression in E. coli for SSKSLKKLVEESREKNQPEVDMSDRGISNMLDVNGLFTLSHITQLVLSHNKLTMVPPNIAELKNLEVLNFFNNQIEELPTQISSLQKLKHLNLGMNRLNTLPRGFGSLPALEVLDLTYNNLSENSLPGNFFYLTTLRALYLSDNDFEILPPDIGKLTKLQILSLRDNDLISLPKEIGELTQLKELHIQGNRLTVLPPELGNLDLTGQKQVFKAENNPWVTPIADQFQLGVSHVFEYIRSETYKYLYGRHMQANPEPPKKNNDKSKKISRKPLAAKNR
Result: soluble

Q: Give the measured soluble on expression in E. coli for TSALIERIDAIIVDLPTIRPHKLAMHTMQQQTLVVLRVRCSDGVEGIGEATTIGGLAYGYESPEGIKANIDAHLAPALIGLAADNINAAMLKLDALAKGNTFAKSGIESALLDAQGKRLGLPVSELLGGRVRDSLEVAWTLASGDTARDIAEARHMLEIRRHRVFKLKIGANPVEQNLKHVVTIKRELGDSASVRVDVNQYWDESQAIRACQVLGDNGIDLIEQPISRINRGGQVRLNQRTPAPIMADESIESVEDAFSLAADGAASIFALKIAKNGGPRAVLRTAQIAEAAGIGLYGGTMLEGSIGTLASAHAFLTLRQLTWGTELFGPLLLTEEIVNEPPQYRDFQLHIPRTPGLGLTLDEARLARFARR
Result: soluble

Q: Give the measured soluble on expression in E. coli for DISEELDYERGRYLDAMIDNHKYTGKARAIIYGQPELALALAKVCFENGVNVKLIALGAKNKILEEALKEEIKSQREEVLVLDDTDFDTIEKYAKEFNVNLFIGNSDGRRMASRLGIEIIRVGFPIHDRV
Result: not soluble

Q: Give the measured soluble on expression in E. coli for MAQVLRGTVTDFPGFDERADAETLRKAMKGLGTDEESILTLLTSRSNAQRQEISAAFKTLFGRDLLDDLKSELTGKFEKLIVALMKPSRLYDAYELKHALKGAGTNEKVLTEIIASRTPEELRAIKQVYEEEYGSSLEDDVVGDTSGYYQRMLVVLLQANRDPDAGIDEAQVEQDAQALFQAGELKWGTDEEKFITIFGTRSVSHLRKVFDKYMTISGFQIEETIDRETSGNLEQLLLAVVKSIRSIPAYLAETLYYAMKGAGTDDHTLIRVMVSRSEIDLFNIRKEFRKNFATSLYSMIKGDTSGDYKKALLLLCGEDD
Result: soluble

Q: Give the measured soluble on expression in E. coli for MSTQKRAIAKTDMLKFTETSQPIGQKKYVELSKDIFIFSYLCGGINFTDIANLTQENIVNGRLHYIRQKTGKLIKIGIPQEAMQIIKKYTDESNGYLFPILNVKVHKTALQKQNRIHKIRGKVNDILKTLGKRLGIEANITTYVARHSFASVLKKSGVNIALISEALGHSDLATTQIYLDSFDNEQVDEAMKNLLEHHHHHH
Result: not soluble
